Biological target: human GLP1R (Homo sapiens, UniProt P43220)
Sequence (P43220 24-463): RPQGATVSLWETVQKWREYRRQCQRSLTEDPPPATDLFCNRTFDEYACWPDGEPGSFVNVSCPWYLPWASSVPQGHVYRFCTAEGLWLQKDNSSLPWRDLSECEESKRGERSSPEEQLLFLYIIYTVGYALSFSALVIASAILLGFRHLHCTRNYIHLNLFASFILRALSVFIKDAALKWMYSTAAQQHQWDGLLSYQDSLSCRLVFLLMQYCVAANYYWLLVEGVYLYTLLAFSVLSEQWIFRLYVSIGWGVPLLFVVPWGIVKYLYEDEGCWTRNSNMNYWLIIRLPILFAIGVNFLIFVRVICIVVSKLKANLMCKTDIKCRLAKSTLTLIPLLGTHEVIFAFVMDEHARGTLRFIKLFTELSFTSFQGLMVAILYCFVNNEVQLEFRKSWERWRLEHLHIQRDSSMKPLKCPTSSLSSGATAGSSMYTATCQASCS
Assay: Human GLP1R cAMP accumulation assay
Assay type: cell-based
Design: HEK293 cells over-expressing full length human GLP-1R were utilized; expressed in transfected cells; host or cells: HEK293 (HEK293/hGLP1R)
Settings: HEK293/hGLP1R cells; Table 4; read-out: cAMP EC50
Where a SMILES comes first, the peptide text is derived from it. [ ]: non-standard residue; d: D form. Bip(2'-Et,4'-O(CH2)4NH2) = CCc1cc(OCCCCN)ccc1-c1ccc(C[C@H](N)C(=O)O)cc1; Nva(5-(3,5-Me2Ph)) = Cc1cc(C)cc(CCC[C@H](N)C(=O)O)c1; Ala(1H-tetrazol-5-yl) = N[C@@H](Cc1nnn[nH]1)C(=O)O; αMePhe(2-F) = C[C@](N)(Cc1ccccc1F)C(=O)O; Aib = CC(C)(N)C(=O)O
measured_attribute: pEC50
Reminder that pEC50 is minus the log10 of a molar concentration.

>>> value_observed("CCc1cc(OCCCCN)ccc1-c1ccc(C[C@H](NC(=O)[C@H](CC(=O)O)NC(=O)[C@H](CO)NC(=O)[C@@H](NC(=O)[C@](C)(Cc2ccccc2F)NC(=O)[C@@H](NC(=O)CNC(=O)[C@H](Cc2nn[nH]n2)NC(=O)C(C)(C)NC(=O)[C@@H](N)Cc2ccc(O)cc2)[C@@H](C)O)[C@@H](C)O)C(=O)N[C@@H](CCCc2cc(C)cc(C)c2)C(N)=O)cc1 [P19] (H-Y[Aib][Ala(1H-tetrazol-5-yl)]GT[αMePhe(2-F)]TSD[Bip(2'-Et,4'-O(CH2)4NH2)][Nva(5-(3,5-Me2Ph))]-NH2)")
9.81

# evaluate next
Request: Entry CCc1cc(OCCCCN)ccc1-c1ccc(C[C@H](NC(=O)[C@H](CC(=O)O)NC(=O)[C@H](CO)NC(=O)[C@@H](NC(=O)[C@](C)(Cc2ccccc2F)NC(=O)[C@@H](NC(=O)CNC(=O)[C@H](Cc2nn[nH]n2)NC(=O)[C@@H](N)CO)[C@@H](C)O)[C@@H](C)O)C(=O)N[C@@H](CCCc2cc(C)cc(C)c2)C(N)=O)cc1 [P7] (H-S[Ala(1H-tetrazol-5-yl)]GT[αMePhe(2-F)]TSD[Bip(2'-Et,4'-O(CH2)4NH2)][Nva(5-(3,5-Me2Ph))]-NH2) : reported pEC50 = ?
Result: 8.69
